// reported viability at 72 h, 20 µM per item
Test: Antiproliferative activity against human LX2 cells assessed as cell survival rate at 20 uM incubated for 72 hrs by CCK-8 assay
Format: toxicity, cell-based
Conditions: LX-2 cells, read-out: Activity
Property label: viability at 72 h, 20 µM

1) COc1ccc(/C=C/C(=O)Nc2ccc(C(=O)O)cc2)cc1OC :: 81.5%
2) COc1ccc(/C=C/C(=O)Nc2cccc(C(=O)N3CCCCC3)c2)cc1OC :: 68.8%
3) O=C(/C=C/c1ccc2c(c1)OCO2)Nc1ccc(C(=O)NC2CCCC2)cc1 :: 78%
4) COc1ccc(/C=C/C(=O)Nc2ccc(C(=O)NC3CCCCC3)cc2)cc1OC :: 81.3%
5) COc1ccc(/C=C/C(=O)Nc2cccc(C(=O)NC3CCCCC3)c2)cc1OC :: 39.8%
6) COc1ccc(/C=C/C(=O)Nc2ccc(C(=O)NC3CCNC3)nc2)cc1OC (stereo not given) :: 76.5%
7) COc1ccc(/C=C/C(=O)Nc2ccc(C(=O)NC3CC3)cc2)cc1OC :: 74.3%
8) COc1ccc(/C=C/C(=O)Nc2cccc(C(=O)NC3CCC3)c2)cc1OC :: 60%
9) COc1ccc(/C=C/C(=O)Nc2ccccc2C(=O)NC2CCCC2)cc1OC :: 88%
10) COc1ccccc1/C=C/C(=O)Nc1cccc(C(=O)NC2CCCC2)c1 :: 66%

----------
Assay: Antiproliferative activity against human LO2 cells assessed as inhibition of cell growth incubated for 72 hrs by CCK-8 assay
Assay type: toxicity, cell-based
Details: LO2 (L02) cells
Property label: log10 of IC50 at 72 h (log10 of the value in µM)

1) COc1ccc(/C=C/C(=O)Nc2ccc(C(=O)NC3CCCC3)cc2)cc1OC :: 1.12
2) COc1ccc(/C=C/C(=O)Nc2cccc(C(=O)NC3CCCC3)c2)cc1OC :: 0.92
3) COc1cc(/C=C/C(=O)Nc2ccc(C(=O)NC3CCCC3)cc2)cc(OC)c1 :: 1.24
4) COc1ccc(/C=C/C(=O)Nc2ccccc2C(=O)O)cc1OC [TRANILAST] :: 1.92
5) COc1ccc(/C=C/C(=O)Nc2cccc(C(=O)NC3CCCC3)c2)cc1 :: 2.02

----------
Test: Antiproliferative activity against human LX2 cells assessed as cell survival rate at 20 uM incubated for 72 hrs by CCK-8 assay
Type: toxicity, cell-based
Details: LX-2 cells, read-out: Activity
Property label: viability at 72 h, 20 µM (%)

1) O=C(/C=C/c1ccc2c(c1)OCCO2)Nc1ccc(C(=O)NC2CCCC2)cc1 :: 69.3
2) COc1ccc(/C=C/C(=O)Nc2ccccc2C(=O)NC2CC2)cc1OC :: 71.5
3) CNC(=O)c1cccc(NC(=O)/C=C/c2ccc(OC)c(OC)c2)c1 :: 79.7
4) COc1ccc(/C=C/C(=O)Nc2cccc(C(=O)NC3CC3)c2)cc1OC :: 65.3
5) COc1ccc(/C=C/C(=O)Nc2ccc(C(=O)NC3CCCC3)cc2)cc1O :: 66.3
6) COc1cccc(/C=C/C(=O)Nc2ccc(C(=O)NC3CCCC3)cc2)c1 :: 70.8
7) COc1cccc(/C=C/C(=O)Nc2ccc(C(=O)NC3CCCC3)cc2)c1OC :: 77
8) COc1ccc(/C=C/C(=O)Nc2ccc(C(=O)NC3CCCC3)nc2)cc1OC :: 64.5
9) COc1ccc(CCC(=O)Nc2ccc(C(=O)NC3CCCC3)cc2)cc1OC :: 71.7
10) COc1ccc(/C=C/C(=O)Nc2ccccc2C(=O)NC2CCC2)cc1OC :: 71

----------
Known viability at 72 h, 20 µM of a selection of compounds
Experiment: Antiproliferative activity against human LX2 cells assessed as cell survival rate at 20 uM incubated for 72 hrs by CCK-8 assay
Format: toxicity, cell-based
Details: LX-2 cells, read-out: Activity
Property label: viability at 72 h, 20 µM (%)

1) COc1ccc(/C=C/C(=O)Nc2ccc(C(=O)O)nc2)cc1OC :: 98
2) Cc1cc(C)cc(/C=C/C(=O)Nc2ccc(C(=O)NC3CCCC3)cc2)c1 :: 80.5
3) COc1ccc(/C=C/C(=O)Nc2ccc(C(=O)NC3CCCC3)cc2)cc1OC :: 46
4) COc1ccc(/C=C/C(=O)Nc2ccc(C(=O)NC3CCNC3)cc2)cc1OC (stereo not given) :: 80.3
5) COc1ccc(CCC(=O)Nc2cccc(C(=O)NC3CCCC3)c2)cc1OC :: 71.7
6) CNC(=O)c1ccccc1NC(=O)/C=C/c1ccc(OC)c(OC)c1 :: 67
7) COc1ccc(/C=C/C(=O)Nc2ccc(C(=O)N3CCCCC3)cc2)cc1OC :: 74
8) COc1ccc(/C=C/C(=O)Nc2ccccc2C(=O)NC2CCCCC2)cc1OC :: 45.3
9) COc1ccc(/C=C/C(=O)Nc2ccc(C(=O)NC3CCC3)cc2)cc1OC :: 68.3
10) COc1ccc(OC)c(/C=C/C(=O)Nc2ccc(C(=O)NC3CCCC3)cc2)c1 :: 63
11) COc1ccc(/C=C/C(=O)Nc2ccccc2C(=O)N2CCCCC2)cc1OC :: 88.7
12) COc1cc(/C=C/C(=O)Nc2ccc(C(=O)NC3CCCC3)cc2)cc(OC)c1 :: 69.7
13) COc1ccc(/C=C/C(=O)Nc2ccccc2C(=O)O)cc1OC [TRANILAST] :: 80
14) COc1ccccc1/C=C/C(=O)Nc1ccc(C(=O)NC2CCCC2)cc1 :: 70.8
15) COc1ccc(/C=C/C(=O)Nc2ccc(C(=O)NC3CCCC3)cc2)cc1 :: 50.3
16) COc1ccc(/C=C/C(=O)Nc2cccc(C(=O)NC3CCCC3)c2)cc1 :: 77.5
17) COc1cccc(/C=C/C(=O)Nc2cccc(C(=O)NC3CCCC3)c2)c1 :: 56
18) CNC(=O)c1ccc(NC(=O)/C=C/c2ccc(OC)c(OC)c2)cc1 :: 79.5
19) COc1ccc(/C=C/C(=O)Nc2cccc(C(=O)O)c2)cc1OC :: 79.3
20) COc1ccc(/C=C/C(=O)Nc2cccc(C(=O)NC3CCCC3)c2)cc1OC :: 44.3
